# measurement description: Ratio of drug level in brain to plasma in rat at 1 mg/kg, iv after 2 hrs
# Type: ADME, organism-based
# Set-up: dose 1 mg/kg, route intravenous
observable: Kp at 2 h
The answer should be a number; do not append a unit.

Below, each entry is followed by its recorded Kp at 2 h result.
INSERT INTO results (chem_smiles, observable, test_value) VALUES
  ('CN(C)C1CCN(c2nc3ccccc3n2Cc2ccc(F)cc2)CC1', 'Kp at 2 h', 4.6),
  ('CN(CC1CCOCC1)C1CCN(c2nc3ccccc3n2Cc2ccc(F)cc2)CC1', 'Kp at 2 h', 6.3),
  ('CN(C1CCOCC1)C1CCN(c2nc3ccccc3n2Cc2ccc(F)cc2)CC1', 'Kp at 2 h', 3.5);

Alright, here's another compound for you.
Reported Kp at 2 h, compound Cc1ccc(/C(=C\CN2CCCC2)c2ccccn2)cc1 : ____ 4.5

###

# Tested on: Plasma
# measurement description: Drug level in rat plasma assessed per gram of tissue at 1 mg/kg, iv after 2 hrs
# Assay type: ADME, organism-based
# Design: dose 1 mg/kg, route intravenous
# recorded conditions: in vivo
Below, each entry is listed alongside its reported Drug uptake.
Kindly provide the numeric value in ng/g only, without the unit symbol.

INSERT INTO measurements (chem_smiles, observable, test_value) VALUES
  ('CN(CC1CCOCC1)C1CCN(c2nc3ccccc3n2Cc2ccc(F)cc2)CC1', 'Drug uptake', 19.2),
  ('CN(c1nccc(=O)[nH]1)C1CCN(c2nc3ccccc3n2Cc2ccc(F)cc2)CC1', 'Drug uptake', 6.3),
  ('Cc1ccc(/C(=C\CN2CCCC2)c2ccccn2)cc1', 'Drug uptake', 7.1),
  ('CN(C1CCOCC1)C1CCN(c2nc3ccccc3n2Cc2ccc(F)cc2)CC1', 'Drug uptake', 18.1);

Reported Drug uptake, compound CN(C)C1CCN(c2nc3ccccc3n2Cc2ccc(F)cc2)CC1 : ____ 10.9
